Data origin, for the record: the FLAb antibody collection

# measurementProtocol: patients with anti-drug antibodies; higher = more immunogenic
readoutKind: patients with anti-drug antibodies (%)
Express the result in % but write the number alone.

Please review the following examples before continuing.
- protein: "unnamed (protein) chain 1: QVQLQQSGTVLARPGASVKMSCKASGYSFTRYWMHWIKQRPGQGLEWIGAIYPGNSDTSYNQKFEGKAKLTAVTSASTAYMELSSLTHEDSAVYYCSRDYGYYFDFWGQGTTLTVSS chain 2: QIVSTQSPAIMSASPGEKVTMTCSASSSRSYMQWYQQKPGTSPKRWIYDTSKLASGVPARFSGSGSGTSYSLTISSMEAEDAATYYCHQRSSYTFGGGTKLEIK"
  patients with anti-drug antibodies (%): 1.5
- protein: "unnamed (protein) chain 1: EVQLVESGGGLVQPGGSLRLSCAASGFTFSSHDMHWVRQATGKGLEWVSGIGTAGDTYYPDSVKGRFTISRENAKNSLYLQMNSLRAGDTAVYYCARDRYSPTGHYYGMDVWGQGTTVTVSS chain 2: DIQMTQSPSTLSASVGDRVTITCRASQSISSWLAWYQQKPGKAPKLLIYKASSLESGVPSRFSGSGSGTEFTLTISSLQPDDFATYYCKQYADYWTFGQGTKVEIK"
  patients with anti-drug antibodies (%): 3

Could you now consider this next protein?
For the protein unnamed (protein) chain 1: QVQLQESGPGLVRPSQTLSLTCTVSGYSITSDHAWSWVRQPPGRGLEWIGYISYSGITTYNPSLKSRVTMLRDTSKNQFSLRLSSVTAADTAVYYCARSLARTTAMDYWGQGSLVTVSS chain 2: DIQMTQSPSSLSASVGDRVTITCRASQDISSYLNWYQQKPGKAPKLLIYYTSRLHSGVPSRFSGSGSGTDFTFTISSLQPEDIATYYCQQGNTLPYTFGQGTKVEIK , what patients with anti-drug antibodies is on record?
2
